System: CD2F1 mice, L1210 leukemia ip, survival T/C
test.details: NCI In Vivo Anticancer Drug Screen. Data for tumor model L1210 Leukemia (intraperitoneal) in CD2F1 (CDF1) mice
cond: endpoint: mean survival time; dose: 200.0 mg/kg/injection; schedule: Q04DX003 (ip); vehicle: saline with Tween-80; higher = longer survival
Toxic doses and inconclusive results are not listed.
quantity.kind: T/C

- compound: "COc1ccc(Cl)cc1C(c1cc(Cl)ccc1OC)C(Cl)(Cl)Cl"
  quantity.kind: "T/C"
  reading: "103 % of control"
- compound: "Cc1oc2ncnc(N)c2c1C"
  quantity.kind: "T/C"
  reading: "100 % of control"
- compound: "CCSC/C(=N\\Nc1ccc([N+](=O)[O-])cc1[N+](=O)[O-])c1ccccc1"
  quantity.kind: "T/C"
  reading: "109 % of control"
- compound: "CC(C)(C)C1CCC(S(=O)c2ccc([N+](=O)[O-])cc2[N+](=O)[O-])CC1 (stereo not given)"
  quantity.kind: "T/C"
  reading: "98 % of control"
- compound: "O=S(=O)(CCBr)CCBr"
  quantity.kind: "T/C"
  reading: "107 % of control"
- compound: "OC(Cc1cc(CC(O)(C(F)(F)F)C(F)(F)F)ncn1)(C(F)(F)F)C(F)(F)F"
  quantity.kind: "T/C"
  reading: "93 % of control"
- compound: "O=c1[nH]c(-c2ccccc2)nc(-c2ccc(Cl)cc2)c1CCO"
  quantity.kind: "T/C"
  reading: "91 % of control"
- compound: "O=C(COc1ccc(Cl)cc1)C1CSc2c(Cl)ccc(Cl)c21 (stereo not given)"
  quantity.kind: "T/C"
  reading: "98 % of control"
- compound: "O=C(O)c1cc(Br)c(-c2c(Br)cc(C(=O)O)cc2[N+](=O)[O-])c([N+](=O)[O-])c1"
  quantity.kind: "T/C"
  reading: "94 % of control"
- compound: "CC1(C)SC(C(NC(=O)Cc2ccccc2)C(=O)O)NC1C(=O)O (stereo not given)"
  quantity.kind: "T/C"
  reading: "103 % of control"
- compound: "COc1ccc(NC(=O)CCC(=O)Oc2ccccc2)cc1"
  quantity.kind: "T/C"
  reading: "100 % of control"
- compound: "COc1ccc(NC2=NCCS2)cc1"
  quantity.kind: "T/C"
  reading: "101 % of control"
- compound: "CCOC(=O)Cn1cnc2cc(C)c(C)cc21"
  quantity.kind: "T/C"
  reading: "100 % of control"
- compound: "CC(CP(=O)(c1ccccc1)c1ccccc1)C(O)(C(=O)c1ccccc1)c1ccccc1 (stereo not given)"
  quantity.kind: "T/C"
  reading: "94 % of control"
- compound: "O=c1[nH]c(-c2ccccc2)nc(-c2ccccc2)c1CCO"
  quantity.kind: "T/C"
  reading: "91 % of control"
- compound: "OC1CCCCCCCCC1Cl (stereo not given)"
  quantity.kind: "T/C"
  reading: "93 % of control"
- compound: "CC12CS(=O)(=O)CC1O2 (stereo not given)"
  quantity.kind: "T/C"
  reading: "96 % of control"
- compound: "NCc1cnc(N)nc1N"
  quantity.kind: "T/C"
  reading: "102 % of control"
- compound: "COc1ccc(NC(=O)CC(C)C(=O)O)cc1 (stereo not given)"
  quantity.kind: "T/C"
  reading: "100 % of control"
- compound: "CC1CNC(=S)O1 (stereo not given)"
  quantity.kind: "T/C"
  reading: "97 % of control"
- compound: "O=C(/C=C(/c1ccccc1)P(=O)(c1ccccc1)c1ccccc1)c1ccccc1"
  quantity.kind: "T/C"
  reading: "93 % of control"
- compound: "CCCCc1ccc(N/C(N)=N/c2nc(C)cc(=O)[nH]2)cc1"
  quantity.kind: "T/C"
  reading: "98 % of control"
- compound: "O=C(Nc1nc2ccccc2s1)c1cc2ccccc2cc1O"
  quantity.kind: "T/C"
  reading: "98 % of control"
- compound: "CC1(C)CC2(OC2c2ccccc2[N+](=O)[O-])C(=O)c2ccccc21 (stereo not given)"
  quantity.kind: "T/C"
  reading: "98 % of control"
- compound: "O=C(OC(C(=O)O)C(OC(=O)c1ccccc1)C(=O)O)c1ccccc1 (stereo not given) (tested in a mixture with another compound)"
  quantity.kind: "T/C"
  reading: "106 % of control"
- compound: "Fc1c(F)c(F)[c]([Ge]([c]2c(F)c(F)c(F)c(F)c2F)([c]2c(F)c(F)c(F)c(F)c2F)[c]2c(F)c(F)c(F)c(F)c2F)c(F)c1F"
  quantity.kind: "T/C"
  reading: "91 % of control"
- compound: "CC(C)(C)c1ccc(O)cc1"
  quantity.kind: "T/C"
  reading: "95 % of control"
- compound: "O=[N+]([O-])c1cc2nsnc2cc1[N+](=O)[O-]"
  quantity.kind: "T/C"
  reading: "95 % of control"
- compound: "c1ccc2c(c1)Oc1ccccc1C2C1c2ccccc2Oc2ccccc21"
  quantity.kind: "T/C"
  reading: "100 % of control"
- compound: "C/C=C/Cc1ccccc1"
  quantity.kind: "T/C"
  reading: "89 % of control"
- compound: "CC1C2CC3C(OC(=O)C13)C2I (stereo not given)"
  quantity.kind: "T/C"
  reading: "89 % of control"
- compound: "NC(N)=Nc1ccc(C(=O)O)cc1"
  quantity.kind: "T/C"
  reading: "95 % of control"
- compound: "O=C(CCC(O)(C(=O)c1ccccc1)c1ccccc1)c1ccccc1 (stereo not given)"
  quantity.kind: "T/C"
  reading: "94 % of control"
- compound: "CC(CCc1ccccc1)NC1=NCCO1 (stereo not given)"
  quantity.kind: "T/C"
  reading: "103 % of control"
- compound: "O=C1OCCN1S(=O)(=O)c1ccc(Cl)cc1"
  quantity.kind: "T/C"
  reading: "102 % of control"
- compound: "CCc1c(C)[nH]c2ccc([N+](=O)[O-])cc12"
  quantity.kind: "T/C"
  reading: "93 % of control"
- compound: "CCCCN(CCCC)CC(O)c1cc(-c2ccc(Cl)cc2)nc2c(OC)ccc(OC)c12 (stereo not given)"
  quantity.kind: "T/C"
  reading: "102 % of control"
- compound: "CC(=O)OC1CCCC2=CC(=O)CCC21C (stereo not given)"
  quantity.kind: "T/C"
  reading: "92 % of control"
- compound: "Cc1oc([N+](=O)[O-])cc1C(=O)O"
  quantity.kind: "T/C"
  reading: "102 % of control"
- compound: "OC(COc1ccccc1)CN1CCCCC1 (stereo not given)"
  quantity.kind: "T/C"
  reading: "98 % of control"
- compound: "N#CN=C(N)NC(=O)c1ccccc1"
  quantity.kind: "T/C"
  reading: "98 % of control"
- compound: "CC(C(=O)c1ccc(-c2ccccc2)cc1)C(Cl)c1ccccc1 (stereo not given)"
  quantity.kind: "T/C"
  reading: "95 % of control"
- compound: "COc1ccc([Si](F)(c2ccc(OC)cc2)c2ccc(OC)cc2)cc1"
  quantity.kind: "T/C"
  reading: "93 % of control"
- compound: "Nc1cccc(S(=O)(=O)NNc2cc(Cl)ccc2Cl)c1"
  quantity.kind: "T/C"
  reading: "96 % of control"
- compound: "COC(=O)c1ccccc1C=C(c1ccc([N+](=O)[O-])cc1)c1ccc([N+](=O)[O-])cc1"
  quantity.kind: "T/C"
  reading: "96 % of control"
- compound: "CCCC(=O)NNC(=O)c1ccccn1"
  quantity.kind: "T/C"
  reading: "104 % of control"
- compound: "Cc1ccc(C)c2c1CC/C(=C\\c1ccccc1[N+](=O)[O-])C2=O"
  quantity.kind: "T/C"
  reading: "97 % of control"
- compound: "C=CCNC(=S)NCCO"
  quantity.kind: "T/C"
  reading: "103 % of control"
- compound: "COc1cccc(NC2=NCCO2)c1"
  quantity.kind: "T/C"
  reading: "98 % of control"
- compound: "O=C(O)CCC1C2C=CC(C2)C1C(=O)O (stereo not given)"
  quantity.kind: "T/C"
  reading: "96 % of control"
